Target: Neurogenic locus notch homolog protein 3 (Homo sapiens) (UniProt Q9UM47)
Sequence (Q9UM47 whole entry, looked up): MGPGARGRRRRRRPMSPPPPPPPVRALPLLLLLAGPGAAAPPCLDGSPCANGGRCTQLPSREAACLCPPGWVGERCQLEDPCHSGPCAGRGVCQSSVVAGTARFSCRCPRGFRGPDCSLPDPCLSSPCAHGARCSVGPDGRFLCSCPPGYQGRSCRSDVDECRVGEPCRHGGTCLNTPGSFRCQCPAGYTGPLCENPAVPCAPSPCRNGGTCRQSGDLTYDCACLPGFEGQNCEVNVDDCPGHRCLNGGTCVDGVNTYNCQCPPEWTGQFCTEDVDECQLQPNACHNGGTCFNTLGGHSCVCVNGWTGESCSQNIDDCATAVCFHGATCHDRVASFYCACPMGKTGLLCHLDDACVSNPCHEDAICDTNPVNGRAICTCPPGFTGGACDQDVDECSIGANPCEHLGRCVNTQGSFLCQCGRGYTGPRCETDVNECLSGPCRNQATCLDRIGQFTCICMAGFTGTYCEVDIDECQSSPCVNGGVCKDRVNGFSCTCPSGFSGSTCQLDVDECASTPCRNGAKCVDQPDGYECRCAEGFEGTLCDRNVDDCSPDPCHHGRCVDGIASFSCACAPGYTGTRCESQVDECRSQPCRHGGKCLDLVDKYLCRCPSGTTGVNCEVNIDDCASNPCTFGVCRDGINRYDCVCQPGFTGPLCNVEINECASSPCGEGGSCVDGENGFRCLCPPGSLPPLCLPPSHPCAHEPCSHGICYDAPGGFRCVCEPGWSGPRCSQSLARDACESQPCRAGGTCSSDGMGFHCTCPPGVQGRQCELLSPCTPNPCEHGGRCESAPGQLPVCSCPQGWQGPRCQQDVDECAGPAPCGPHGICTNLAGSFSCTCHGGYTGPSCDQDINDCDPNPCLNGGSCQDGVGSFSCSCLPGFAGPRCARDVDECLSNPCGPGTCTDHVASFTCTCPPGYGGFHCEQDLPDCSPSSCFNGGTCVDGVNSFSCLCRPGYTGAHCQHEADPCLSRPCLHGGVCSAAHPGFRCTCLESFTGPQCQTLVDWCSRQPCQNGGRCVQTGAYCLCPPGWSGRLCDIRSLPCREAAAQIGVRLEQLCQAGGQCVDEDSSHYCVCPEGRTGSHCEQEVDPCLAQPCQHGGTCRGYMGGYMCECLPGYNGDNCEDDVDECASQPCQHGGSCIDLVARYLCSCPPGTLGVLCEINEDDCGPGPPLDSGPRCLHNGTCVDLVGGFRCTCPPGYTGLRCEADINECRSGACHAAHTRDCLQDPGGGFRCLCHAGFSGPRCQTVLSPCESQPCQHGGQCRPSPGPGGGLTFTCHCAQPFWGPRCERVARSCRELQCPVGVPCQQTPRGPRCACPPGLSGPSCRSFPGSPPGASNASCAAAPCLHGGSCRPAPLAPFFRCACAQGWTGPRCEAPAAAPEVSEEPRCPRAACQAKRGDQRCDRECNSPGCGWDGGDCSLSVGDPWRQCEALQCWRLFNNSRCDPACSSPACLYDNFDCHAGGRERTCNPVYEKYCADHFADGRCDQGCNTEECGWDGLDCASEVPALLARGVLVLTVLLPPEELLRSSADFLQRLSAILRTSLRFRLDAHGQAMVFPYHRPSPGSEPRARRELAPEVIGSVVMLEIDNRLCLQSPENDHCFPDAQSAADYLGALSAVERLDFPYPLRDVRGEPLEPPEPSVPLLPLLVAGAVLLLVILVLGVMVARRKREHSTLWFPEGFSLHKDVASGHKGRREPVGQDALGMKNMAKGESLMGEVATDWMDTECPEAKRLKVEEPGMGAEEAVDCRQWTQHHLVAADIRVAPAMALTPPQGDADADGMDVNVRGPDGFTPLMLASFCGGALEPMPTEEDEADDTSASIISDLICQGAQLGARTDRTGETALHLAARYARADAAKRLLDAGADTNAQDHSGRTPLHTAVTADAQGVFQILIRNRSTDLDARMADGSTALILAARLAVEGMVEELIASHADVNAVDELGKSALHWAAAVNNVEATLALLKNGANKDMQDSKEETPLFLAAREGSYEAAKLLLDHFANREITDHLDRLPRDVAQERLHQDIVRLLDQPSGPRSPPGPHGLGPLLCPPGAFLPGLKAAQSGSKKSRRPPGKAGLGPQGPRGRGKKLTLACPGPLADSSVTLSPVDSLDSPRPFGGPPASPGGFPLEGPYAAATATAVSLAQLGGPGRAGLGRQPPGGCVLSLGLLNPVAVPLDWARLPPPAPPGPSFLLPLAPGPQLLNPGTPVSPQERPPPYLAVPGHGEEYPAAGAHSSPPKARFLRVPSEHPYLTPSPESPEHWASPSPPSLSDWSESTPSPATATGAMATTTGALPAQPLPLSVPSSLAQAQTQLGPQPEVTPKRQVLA
Experiment: small molecules binding NOTCH3 protein – biochemical, 635/667 nm fluorescence, primary screen (AID 1096)
Details: small-molecule microarray, 635 nm fluorescence, higher = more signal
Exercise: for every item that follows, state its recorded composite z-score.
Give bare numbers.

Reference set (6 entries):
| molecule | value observed |
| --- | --- |
| OCCCC1=CC(C2CC2)N(Cc2cccc(OC(F)(F)F)c2)CC1 (stereo not given) | -0.477 |
| [N-]=[N+]=Nc1ccccc1[C@H]1OC(c2ccc(OCCCO)cc2)=N[C@@]1(CCS(=O)(=O)c1ccccc1)C(=O)NCc1ccccc1 | 1.1 |
| COC(=O)[C@@]1(Cc2ccc(OC)cc2)[C@H]2c3cc(C(=O)N4CCCC4)n(CCSCCO)c3C[C@H]2CN1C(=O)c1ccccc1 | 0.671 |
| C=C(CCCC)/C(=C/C[C@H](OC(=O)c1ccncc1)c1ccc(OCCO)cc1)c1cc(C(=O)OC)ccc1OC | -0.0191 |
| O=C1N(CCS(=O)(=O)c2ccccc2)c2ccccc2[C@@H]2OC(c3ccc(OCCCO)cc3)=N[C@]12Cc1ccccc1 | 1.12 |
| CCOC(=O)C1=CC[C@@H](c2ccccc2)N(S(=O)(=O)c2ccc(C)cc2)[C@H]1c1ccc(CC)cc1 | 0.716 |

Please state composite z-score for every molecule in the list that follows.
1. COc1ccccc1CN1C(=O)c2ccccc2[C@@H](C(=O)NCc2ccccc2)[C@@H]1c1ccc(CO)cc1
2. [N-]=[N+]=NCc1ccccc1[C@@H]1OC(c2ccc(OCCCO)cc2)=N[C@]1(CCS(=O)(=O)c1ccccc1)C(=O)N1CCOCC1
3. COC(=O)[C@@]1(Cc2ccccc2)[C@H]2c3cc(C(=O)N4CCCC4)n(Cc4ccc(O)c(OC)c4)c3C[C@H]2CN1C(=O)c1ccccc1
4. C=CC[C@]1(C(=O)NCc2ccccc2)N=C(c2ccc(OCCCO)cc2)O[C@H]1c1ccccc1CN=[N+]=[N-]
5. O=C(NCCN1CCOCC1)[C@@H]1c2ccccc2C(=O)N(Cc2cc(C(F)(F)F)cc(C(F)(F)F)c2)[C@H]1c1ccc(CO)cc1

**A:**
1. 0.271
2. 1.07
3. 0.79
4. 1.06
5. -0.578

Please state composite z-score for every molecule in the list that follows.
1. NC(=O)[C@@H]1[C@H]2C(=O)O[C@H](c3ccccc3)[C@H](c3ccccc3)N2[C@H](c2ccc(O)cc2)[C@@]12C(=O)Nc1ccc(C#CC3=CCCCC3)cc12
2. [N-]=[N+]=NCc1ccccc1[C@H]1OC(c2ccc(OCCCO)cc2)=N[C@@]1(Cc1ccccc1)C(=O)N1CCCCC1
3. C=CCC(OC(C)=O)[C@@H]1[C@@H](N(Cc2ccc(-c3cccc(C(F)(F)F)c3)o2)C(=O)Cc2ccc(OC)cc2)c2cc(OCCCO)ccc2N1C(=O)c1ccc2ccccc2c1 (stereo not given in full)
4. C=CC[C@]1(C(N)=O)COC(c2ccc(OCCCO)cc2)=N1
5. [N-]=[N+]=NCc1ccccc1C[C@@]1(C(=O)NCC(O)CO)N=C(c2ccc(OCCCO)cc2)O[C@@H]1c1ccccc1 (stereo not given in full)
6. COCCCNC(=O)[C@@]1(Cc2ccccc2)N=C(c2ccc(OCCCO)cc2)O[C@H]1c1ccccc1CN=[N+]=[N-]

**A:**
1. 1.11
2. 1.13
3. 0.035
4. -0.769
5. -1.12
6. 1.05

Please state composite z-score for every molecule in the list that follows.
1. COCCCNC(=O)[C@@H]1c2ccccc2C(=O)N(Cc2ccccc2)[C@H]1c1ccc(CO)cc1
2. COC(=O)C[C@H]1O[C@@H](CCc2ccccc2)[C@@H](C)[C@@H]1[Si](C)(C)c1ccc(OC)cc1
3. COC(=O)C(CC#Cc1ccc2c(c1)[C@]1(C(=O)N2)[C@H](c2ccccc2OCCO)N2[C@H](c3ccccc3)[C@H](c3ccccc3)OC(=O)[C@H]2[C@@H]1C(=O)O)C(=O)OC
4. CN(C)CCCCCCNC(=O)[C@@H]1C[C@@H]2C(=O)N3CCC[C@H]3C(=O)N2[C@@H]1c1ccc(O)cc1

**A:**
[0.109, -0.311, 0.691, 1.05]

Please state composite z-score for every molecule in the list that follows.
1. C=CC[C@]1(C(=O)N2CCOCC2)N=C(c2ccc(OCCCO)cc2)O[C@H]1c1ccccc1N=[N+]=[N-]
2. CCCC=C(CCC)[C@@H](NS(=O)(=O)c1ccc(Cl)cc1)c1ccc(C(=O)OC)cc1
3. COCC(=C=CC[C@H](O)c1cccc(OCCO)c1)CCO
4. COC(=O)[C@@]1(Cc2ccc(F)cc2)[C@H]2c3cc(C(=O)N(C)C)n(Cc4cc(C)n(C)n4)c3C[C@H]2CN1C(=O)c1ccccc1
5. CO[C@H]1O[C@H](CO)[C@@H](OC(=O)Nc2cccc(F)c2)[C@H](OC(=O)Nc2ccccc2)[C@H]1OC(=O)Nc1ccccc1

**A:**
[1.11, -1.6, 0.898, 1.01, 1.11]

====

Assay: plasmodial surface anion channel blockers, osmotic lysis – cell-based, P. falciparum Indochina, OD700, 1 h, primary screen (AID 1154)
Details: P. falciparum Indochina infected RBC osmotic lysis, higher = more signal, called active from +8 up or from −8 down
parameter: z-score
Numbers only.

Reference set (6 entries):
| compound | value observed |
| --- | --- |
| CC(c1ccccc1)C(O)C1C=CC2C(=O)N(C)C(=O)C2N1NC(=O)OC(C)(C)C (configuration not stated) | 0.667 |
| [N-]=[N+]=Nc1ccccc1C[C@]1(C(=O)N2CCCCC2)COC(c2ccc(OCCCO)cc2)=N1 | 23.1 |
| CCCC[C@@H]1C[C@H]1[C@@H](NC(=O)c1cccnc1)c1ccc(Cl)cc1 | 2.29 |
| C#CCOc1ccc(C[C@@H](C(=O)OC)N(CC#C)[C@@H](/C=C/C2CC2)[C@H](O)Cc2ccccc2)cc1 | 1.7 |
| C=CC[C@]1(C(=O)NCc2ccccc2)N=C(c2ccc(OCCCO)cc2)O[C@H]1c1ccccc1CN=[N+]=[N-] | 19.7 |
| C=CCNC(=O)[C@@H]1[C@H]2C(=O)O[C@H](c3ccccc3)[C@H](c3ccccc3)N2[C@H](c2ccc(OCCO)cc2)[C@@]12C(=O)N(C(=O)OCCOC)c1ccc(C#CCNC(N)=O)cc12 | 4.2 |

Continue with the next compound.
**Q:** GET /values?readout=z-score&item= COC(=O)[C@@]1(Cc2ccc(OC)cc2)[C@H]2c3cc(C(=O)N4CCCC4)n(CCc4ccc(O)c(O)c4)c3C[C@H]2CN1C(=O)c1ccccc1
**A:** 5.39

====

Assay: growth of efflux-deficient E. coli DRC39 – strain DRC39, OD650, 48 h, E. coli filamentation inducers, primary screen (AID 1179);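 also: screen aims at cell division blockers that make cells filament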
Conditions: E. coli DRC39 delta-acrAB growth, higher = more signal, called active from +8 up or from −8 down
Criterion: z-score meeting or surpassing -0.07. Met: y. Not met: n.

Below are worked cases with known answers.
| compound | classification |
| --- | --- |
| OB1C=CCC(CCc2ccccc2)O1 (configuration not stated) | y |
| C#CCNCc1ccccc1 | n |
| C[N+](C)(C)CCCC[C@@H]1NC(=O)[C@H]2C[C@@H](C(=O)NCCCCCCNC(=O)CS)[C@@H](c3ccc(O)cc3)N2C1=O | n |

**Q:** Decide: z-score of O=C1NC(=O)C2C1C=CC(C(O)c1ccc(I)cc1)N2Nc1ccc(Cl)cc1Cl (configuration not stated) >= -0.07?
**A:** n

**Q:** Decide: z-score of O=C1NC(=O)C2C1C=CC(C(O)C1CC=CCC1)N2Nc1ccccn1 (configuration not stated) >= -0.07?
**A:** y

**Q:** Decide: z-score of CC(C)CN1C(=O)[C@@]2(c3ccc([N+](=O)[O-])cc3)CC(=O)N(C3CCCCC3)[C@@H]2c2ccc(CO)cc21 >= -0.07?
**A:** y

====

Exercise: for every item that follows, state its recorded z-score.
Experiment: optical density shifts of acrAB sulA E. coli – strain DRC41, OD650, 48 h, E. coli filamentation inducer project, primary screen (AID 1152);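 also: E. coli MC1000 strain DRC41 lacking acrAB efflux pump and sulA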
Details: higher = more signal, called active from +8 up or from −8 down
Numbers only.

| line notation | z-score |
| --- | --- |
| COCCOC(=O)N1C(=O)[C@@]2(c3cc(C#CC4(O)CCCCCC4)ccc31)[C@H](C(=O)Nc1nc3ccccc3s1)[C@H]1C(=O)O[C@H](c3ccccc3)[C@H](c3ccccc3)N1[C@@H]2c1ccc(OCCO)cc1 | 0.197 |
| NCCCCCNC(=O)[C@H]1C[C@H]2C(=O)N[C@@H](Cc3ccccc3)C(=O)N2[C@H]1c1cccc(OCCO)c1 | 0.545 |

**Q:** GET /values?readout=z-score&item= C=C(/C(=C/C[C@H](OC(=O)c1ccncc1)c1ccc(OCCO)cc1)c1cc(C(=O)OC)ccc1OC)C(C)C
**A:** 0.936
